# ASSAY_SUMMARY: Human microsomal clearance assay
# Assay type: in vitro ADME
# STATED_CONDITIONS: human, 1 μM, pH 7.4
Would you mind telling me the reported CLh of each entry?
Please answer using a numeric value trailed by its unit.

Problem: What value of CLh has been reported for the following compound? "COC(=O)C1=C(CN2[C@@H]3C[C@H](CC(=O)O)C[C@H]2C(F)(F)C3)NC(c2nccs2)=N[C@H]1c1cccc(F)c1Cl"
Result: 0.2 mL/min/kg

Problem: I have this compound here, "COC(=O)C1=C(CN2C3COCC2CN(C(N)=O)C3)NC(c2nccs2)=N[C@H]1c1ccc(F)cc1Cl" , and I need its recorded CLh.
Result: 1.3 mL/min/kg

Problem: For COC(=O)C1=C(CN2C3COCC2CC(C(=O)O)C3)NC(c2nc(C)cs2)=N[C@H]1c1ccc(F)cc1Cl (stereo partly shown) , what is its reported CLh?
Result: 3.2 mL/min/kg

Problem: # input compound: CCOC(=O)C1=C(CN2C3CCC2(C(=O)O)COC3)NC(c2nccs2)=N[C@H]1c1cccc(F)c1Cl (stereo partly shown) ; wanted: its CLh
Result: 1.6 mL/min/kg

Problem: Please look up its CLh: "CCOC(=O)C1=C(CN2[C@@H]3COC[C@H]2C[C@H](CC(=O)O)C3)NC(c2nccs2)=N[C@H]1c1cccc(F)c1Br"
Result: 3.5 mL/min/kg

Problem: Please give the measured CLh for this compound: COC(=O)C1=C(CN2C3COCC2C(F)(F)[C@@H](CC(=O)O)C3)NC(c2nccs2)=N[C@H]1c1ccc(F)cc1Cl (stereo partly shown)
Result: 0 mL/min/kg

Problem: Fill in: CLh of "COC(=O)C1=C(CN2[C@H]3COC[C@@H]2[C@@H](F)[C@H](CC(=O)O)C3)NC(c2nccs2)=N[C@H]1c1cccc(F)c1Cl" is ___
Result: 0 mL/min/kg

Problem: Look at this compound and give its reported CLh. "COC(=O)C1=C(CN2[C@@H]3COC[C@H]2C[C@H](CC(=O)O)C3)NC(c2nccs2)=N[C@H]1c1ccc(F)c(F)c1Cl"
Result: 3.6 mL/min/kg

Problem: Requested read-out: CLh. Entry: "COC(=O)C1=C(CN2C3COCC2CN(C(N)=O)C3)NC(c2nccs2)=N[C@H]1c1ccc(F)cc1Br"
Result: 6.5 mL/min/kg

Problem: Please give the measured CLh for this compound: COC(=O)C1=C(CN2C3COCC2CC(NC(C)=O)C3)NC(c2nccs2)=N[C@H]1c1ccc(F)cc1Cl (stereo partly shown)
Result: 6.4 mL/min/kg

Ref: patent US9266904B2
